Test: UV absorbance of PMMA films loaded with additive
Format: physicochemical
Settings: additive 5% w/w of PMMA; value includes PMMA absorbance (higher by 0.07)
readout label: UV 193 nm (absorbance)

[
  {
    "structure notation": "Nc1ccc2cc3ccccc3cc2c1",
    "UV 193 nm (absorbance)": "0.51 /0.5 μm"
  },
  {
    "structure notation": "c1ccc2cc3ccccc3cc2c1",
    "UV 193 nm (absorbance)": "0.38 /0.5 μm"
  },
  {
    "structure notation": "OCc1c2ccccc2cc2ccccc12",
    "UV 193 nm (absorbance)": "0.43 /0.5 μm"
  }
]

Below: the item to evaluate.
Task: Fill in UV 193 nm (absorbance) for record "O=C(O)c1c2ccccc2cc2ccccc12"
Result: 0.46 /0.5 μm

----------
Assay: Solubility of additive in the solvents used (PGMEA, MIBK)
readout label: solubility (in words)

Worked set:
[
  {
    "molecule": "O=C(CCC(=O)OC(Cc1c2ccccc2cc2ccccc12)Cc1c2ccccc2cc2ccccc12)OCC(COC(=O)CCC(=O)OC(Cc1c2ccccc2cc2ccccc12)Cc1c2ccccc2cc2ccccc12)Cc1c2ccccc2cc2ccccc12",
    "solubility (in words)": "decreased solubility"
  },
  {
    "molecule": "OC(Cc1c2ccccc2cc2ccccc12)Cc1c2ccccc2cc2ccccc12",
    "solubility (in words)": "improved solubility"
  },
  {
    "molecule": "c1ccc2c(CNC3CCCCC3NCc3c4ccccc4cc4ccccc34)c3ccccc3cc2c1 (stereo not shown)",
    "solubility (in words)": "improved solubility"
  },
  {
    "molecule": "O=C(CCC(=O)OC(Cc1c2ccccc2cc2ccccc12)Cc1c2ccccc2cc2ccccc12)OCc1c2ccccc2cc2ccccc12",
    "solubility (in words)": "decreased solubility"
  }
]

Below: the item to evaluate.
Task: Fill in solubility (in words) for record "O=C(O)CCC(=O)OC(Cc1c2ccccc2cc2ccccc12)Cc1c2ccccc2cc2ccccc12"
Result: improved solubility

----------
Assay: UV absorbance of PMMA films loaded with additive
Type: physicochemical
Conditions: additive 7.5% w/w of PMMA
Each entry below carries its reported UV 193 nm (absorbance).

Worked set:
[
  {
    "compound": "O=C(OCc1c2ccccc2cc2ccccc12)C12CC3CC(CC(C3)C1)C2 [XI, 1-adamantyl 9-anthrylmethylate]",
    "UV 193 nm (absorbance)": "0.05 /0.5 μm"
  },
  {
    "compound": "O=C(OCC(COC(=O)C12CC3CC(CC(C3)C1)C2)Cc1c2ccccc2cc2ccccc12)C12CC3CC(CC(C3)C1)C2 (stereo not drawn)",
    "UV 193 nm (absorbance)": "0.17 /0.5 μm"
  }
]

Task: Fill in UV 193 nm (absorbance) for record "c1ccc2c(CNCc3c4ccccc4cc4ccccc34)c3ccccc3cc2c1"
Result: 0.22 /0.5 μm

----------
Each entry below carries its reported UV 193 nm (absorbance).
Assay: UV absorbance of PMMA films loaded with additive
Type: physicochemical
Conditions: additive 7.5% w/w of PMMA
Experimental: A quantity of a polyaromatic compound (i.e.compound (XI), Table 9), was added in part of this solution at a 7.5% w/w of the polymer concentration. The solution was stirred at room temperature for a few hours and the polyaromatic compound was dissolved. Then, a small amount of the solution was used to spin coat a film on quartz substrate at 4000 rpm for 30 sec. The thickness of this film was measured by a profilometer and found 12250 Å. […]

Task: Fill in UV 193 nm (absorbance) for record "O=C(O)CCC(=O)OC(Cc1c2ccccc2cc2ccccc12)Cc1c2ccccc2cc2ccccc12"
Result: 0.33 /0.5 μm

Task: Fill in UV 193 nm (absorbance) for record O=C(OCCOc1c2ccccc2cc2ccccc12)OCCOc1c2ccccc2cc2ccccc12 [VI, Di-2-(9-anthryloxy)-ethyl carbonate]
Result: 0.24 /0.5 μm

Task: Fill in UV 193 nm (absorbance) for record "O=C(CCC(=O)OC(Cc1c2ccccc2cc2ccccc12)Cc1c2ccccc2cc2ccccc12)OCc1c2ccccc2cc2ccccc12"
Result: 1.41 /0.5 μm

Task: Fill in UV 193 nm (absorbance) for record "OC(Cc1c2ccccc2cc2ccccc12)Cc1c2ccccc2cc2ccccc12"
Result: 0.16 /0.5 μm

Task: Fill in UV 193 nm (absorbance) for record "O=C(CCC(=O)OC(Cc1c2ccccc2cc2ccccc12)Cc1c2ccccc2cc2ccccc12)OCC(COC(=O)CCC(=O)OC(Cc1c2ccccc2cc2ccccc12)Cc1c2ccccc2cc2ccccc12)Cc1c2ccccc2cc2ccccc12"
Result: 0.33 /0.5 μm

Task: Fill in UV 193 nm (absorbance) for record CC(=O)C1CCC2C3CC=C4CC(OC(=O)c5c6ccccc6cc6ccccc56)CCC4(C)C3CCC12C (stereo not shown)
Result: 0.20 /0.5 μm

Task: Fill in UV 193 nm (absorbance) for record "O=C(OCc1c2ccccc2cc2ccccc12)c1c2ccccc2cc2ccccc12"
Result: 0.35 /0.5 μm
